The measurements presented in this section are drawn from patent US20260151516A1.

Test: Biodistribution studies incl. blocking experiments
Type: in vivo
Settings: healthy BALB/c mice, 60 min p.i.
Method: For biodistribution studies 6 week old female BALB/c mice (n=3) were injected with 0.1 nmol (100 μL, approx. 1 MBq) of labelled compound via the lateral tail vein and sacrificed after 10, 30, or 60 min by cervical dislocation. The mice were dissected, blood and organs (spleen, pancreas, stomach, intestine, liver, kidney, heart, lung, muscle, and bone) were weighed, and their activity measured in a γ-counter. […]
READOUT NAME: Biodistribution Lung (% ID/g)
The figure you give is taken to be in % ID/g; do not add the unit.

Some solved entries appear below for comparison.
{"COMPOUND": "O=C(CCP(=O)([O-])CN1CCN(CP(=O)([O-])CCC(=O)NCc2cn(CCOCCOCCO[C@@H]3O[C@H](CO)[C@@H](O)[C@H](O)[C@H]3O)nn2)CCN(CP(=O)([O-])CCC(=O)NCc2cn(CCOCCOCCO[C@@H]3O[C@H](CO)[C@@H](O)[C@H](O)[C@H]3O)nn2)CC1)NCc1cn(CCOCCOCCO[C@@H]2O[C@H](CO)[C@@H](O)[C@H](O)[C@H]2O)nn1.[68Ga+3] [[^68Ga]Ga-TRAP-Gluco, reference compound]", "UNITS TEXT": "% ID/g", "Biodistribution Lung": 0.31}
{"COMPOUND": "O=C(CCP(=O)([O-])CN1CCN(CP(=O)([O-])CCC(=O)NCc2cn([C@@H]3O[C@H](CO)[C@H](O)[C@H](O)[C@H]3O)nn2)CCN(CP(=O)([O-])CCC(=O)NCc2cn([C@@H]3O[C@H](CO)[C@H](O)[C@H](O)[C@H]3O)nn2)CC1)NCc1cn([C@@H]2O[C@H](CO)[C@H](O)[C@H](O)[C@H]2O)nn1.[68Ga+3] [[^68Ga]Ga-Galacto-TRAP]", "UNITS TEXT": "% ID/g", "Biodistribution Lung": 0.12}
{"COMPOUND": "O=C(CCP(=O)([O-])CN1CCN(CP(=O)([O-])CCC(=O)NCc2cn(CCOCCOCCO[C@@H]3O[C@H](CO)[C@H](O)[C@H](O)[C@H]3O)nn2)CCN(CP(=O)([O-])CCC(=O)NCc2cn(CCOCCOCCO[C@@H]3O[C@H](CO)[C@H](O)[C@H](O)[C@H]3O)nn2)CC1)NCc1cn(CCOCCOCCO[C@@H]2O[C@H](CO)[C@H](O)[C@H](O)[C@H]2O)nn1.[68Ga+3] [[^68Ga]Ga-TRAP-Galactan]", "UNITS TEXT": "% ID/g", "Biodistribution Lung": 0.32}

QUERY: Reported Biodistribution Lung for O=C(O)CN1CCN(CC(=O)O)CCN([C@H](CCC(=O)NCCCC(=O)NC(COCc2cn(CCOCCOCCO[C@@H]3O[C@H](CO)[C@H](O)[C@H](O)[C@H]3O)nn2)(COCc2cn(CCOCCOCCO[C@@H]3O[C@H](CO)[C@H](O)[C@H](O)[C@H]3O)nn2)COCc2cn(CCOCCOCCO[C@@H]3O[C@H](CO)[C@H](O)[C@H](O)[C@H]3O)nn2)C(=O)O)CC1 [[^68Ga]Ga-NODAGA-TriGalactan, metal not drawn] : what is it?
RESULT: 0.38

QUERY: Same again, this time with CC(=O)N[C@H]1[C@H](OCCOCCOCCn2cc(CNC(=O)CCP(=O)([O-])CN3CCN(CP(=O)([O-])CCC(=O)NCc4cn(CCOCCOCCO[C@@H]5O[C@H](CO)[C@H](O)[C@H](O)[C@H]5NC(C)=O)nn4)CCN(CP(=O)([O-])CCC(=O)NCc4cn(CCOCCOCCO[C@@H]5O[C@H](CO)[C@H](O)[C@H](O)[C@H]5NC(C)=O)nn4)CC3)nn2)O[C@H](CO)[C@H](O)[C@@H]1O.[68Ga+3] [[^68Ga]Ga-TRAP-GalNAc]
RESULT: 0.71
